- Read-out: Intercellular Adhesion Molecule 1 (ICAM1), ICAM1 (gene 3383)
- Assay: BSK_3C_ICAM1: BioMAP Diversity Plus: 3C Assay for Intercellular Adhesion Molecule 1 (ICAM1) Biomarker Activity (AID 2283003)
- Test Conditions: primary human endothelial cells (HUVEC); actives raise or lower the signal
Calls of active or inactive are those of the source. The calls were made as follows: active = hit-call score of the fitted dose curve at least 0.9, where 1 is the maximum; inactive = score below 0.9.
Answer with one of the outcomes active, inactive

Challenge: # outcome recorded in this test, key = CCCCCCCc1ccc(O)cc1
Response given: active

Challenge: # outcome recorded in this test, key = O=C(O)C(F)(F)C(F)(F)C(=O)O
Response given: inactive

Challenge: # outcome recorded in this test, key = CCCCC(CC)COC(=O)c1c(Br)c(Br)c(Br)c(Br)c1C(=O)OCC(CC)CCCC (centres undefined)
Response given: inactive

Challenge: # outcome recorded in this test, key = CCCCOCCOP(=O)(OCCOCCCC)OCCOCCCC
Response given: inactive

Challenge: # outcome recorded in this test, key = CCOS(=O)(=O)OCC
Response given: inactive

Challenge: # outcome recorded in this test, key = O=C(O)C(F)(OC(F)(F)C(F)(F)C(F)(F)F)C(F)(F)F (centres undefined)
Response given: inactive

Challenge: # outcome recorded in this test, key = CC(C)(C)c1ccc(O)cc1
Response given: inactive

Challenge: # outcome recorded in this test, key = COC(=O)C(F)(F)C(F)(F)OC(F)(C(F)(F)F)C(F)(F)OC(F)=C(F)F (centres undefined)
Response given: inactive

Challenge: # outcome recorded in this test, key = Cc1ccc([N+](=O)[O-])cc1C
Response given: inactive

Challenge: # outcome recorded in this test, key = COP(=O)(O)OC
Response given: inactive

Challenge: # outcome recorded in this test, key = C=CC(=O)OCC(CC)(COC(=O)C=C)COC(=O)C=C
Response given: active

Challenge: # outcome recorded in this test, key = O=[N+]([O-])c1ccccc1
Response given: inactive

Challenge: # outcome recorded in this test, key = CCOP(=S)(OCC)SCS(=O)(=O)CC
Response given: inactive

Challenge: # outcome recorded in this test, key = Nc1ccc([N+](=O)[O-])cc1Cl
Response given: inactive

Challenge: # outcome recorded in this test, key = COCCOCCO
Response given: inactive

Challenge: # outcome recorded in this test, key = OCC(F)(F)OC(F)(F)C(F)(F)OC(F)(F)C(F)(F)OC(F)(F)CO
Response given: inactive

Challenge: # outcome recorded in this test, key = CCC1(c2ccccc2)C(=O)N=C(O)NC1=O (centres undefined)
Response given: inactive

Challenge: # outcome recorded in this test, key = CCOP(=S)(NC(C)C)Oc1ccccc1C(=O)OC(C)C (centres undefined)
Response given: inactive

Challenge: # outcome recorded in this test, key = CC(C)(C)c1ccccc1OP(=O)(Oc1ccccc1)Oc1ccccc1
Response given: active

Challenge: # outcome recorded in this test, key = Cc1c([N+](=O)[O-])cc2c(c1[N+](=O)[O-])C(C)(C)CC2(C)C
Response given: inactive

Challenge: # outcome recorded in this test, key = O=c1ssc(Cl)c1Cl
Response given: active

Challenge: # outcome recorded in this test, key = CCOP(=S)(OCC)SCn1nnc2ccccc2c1=O
Response given: inactive

Challenge: # outcome recorded in this test, key = COP(N)(=S)OC
Response given: inactive

Challenge: # outcome recorded in this test, key = CCCCN(CCCC)SN(C)C(=O)Oc1cccc2c1OC(C)(C)C2
Response given: active

Challenge: # outcome recorded in this test, key = ClC(Cl)(Cl)c1ccccc1
Response given: inactive

Challenge: # outcome recorded in this test, key = CCC(C)(C)c1ccc(O)cc1
Response given: inactive

Challenge: # outcome recorded in this test, key = Nc1cc2c3c(c1)C(c1ccccc1)=N[C@@H](NC(=O)c1cccnc1)C(=O)N3CC2
Response given: inactive

Challenge: # outcome recorded in this test, key = O=C(O)C=CC(F)(C(F)(F)F)C(F)(F)F
Response given: inactive

Challenge: # outcome recorded in this test, key = Cc1cccc(N)c1
Response given: inactive
